Source of measurements: ChEMBL document CHEMBL4266057

ASSAY_PROCEDURE: in vivo
CONDITION_SUMMARY: rhesus monkey, plasma, po, 5 mg/kg
PARAMETER: concentration at 24 h (nM)
Report the value in nM with no unit label.

Fill in the blank: the reported concentration at 24 h of O=C(O)c1ccc(N2CC3(CCN(Cc4cc(C(F)(F)F)ccc4C4CC4)CC3)OC2=O)cc1 is ____.
470
